assay: Phase 1b study in female adults with cystitis, plasma PK; format: in vivo, human; details: female, human, plasma, intravenous, 200 mg, plasma, Day 1, IV_PO300; read-out: AUC(0-inf), Median
Readout Kind: AUC(0-inf) (ng·h/mL)
Give the value in ng·h/mL but do not write ng·h/mL after it.

Query block: Endpoint output: AUC(0-inf) of CN(C)c1cc(CNCC(C)(C)C)c(O)c2c1C[C@H]1C[C@H]3[C@H](N(C)C)C(O)=C(C(N)=O)C(=O)[C@@]3(O)C(O)=C1C2=O . Value?
Result block: 19300

====

test system: Enterobacter spp; test: In vitro MIC, 2010 surveillance isolates; type: cell-based; conditions: Asia/Pac; N=52
This listing pairs compounds with measured MIC90.

- Compound: "C[C@@H](O)[C@H]1C(=O)N2C(C(=O)O)=C(SCCN=CN)C[C@H]12"
  MIC90: "1 µg/mL"
- Compound: "CO/N=C(\\C(=O)N[C@@H]1C(=O)N2C(C(=O)[O-])=C(C[N+]3(C)CCCC3)CS[C@H]12)c1csc(N)n1 [Cefepime]"
  MIC90: "1 µg/mL"
- Compound: "CN(C)c1cc(NC(=O)CNC(C)(C)C)c(O)c2c1C[C@H]1C[C@H]3[C@H](N(C)C)C(O)=C(C(N)=O)C(=O)[C@@]3(O)C(O)=C1C2=O"
  MIC90: "1 µg/mL"

Query block: Quick check: MIC90 of C[C@H]1COc2c(N3CCN(C)CC3)c(F)cc3c(=O)c(C(=O)O)cn1c23 ?
Result block: ≤ 0.5 µg/mL

Query block: Returns the measured MIC90 for the input compound. Input: CO/N=C(\C(=O)N[C@@H]1C(=O)N2C(C(=O)O)=C(CSc3nc(=O)c(=O)[nH]n3C)CS[C@H]12)c1csc(N)n1
Result block: > 8 µg/mL

Query block: Looking for the measured MIC90 of CN(C)c1cc(CNCC(C)(C)C)c(O)c2c1C[C@H]1C[C@H]3[C@H](N(C)C)C(O)=C(C(N)=O)C(=O)[C@@]3(O)C(O)=C1C2=O , can you help?
Result block: 16 µg/mL

Query block: Sample NCC[C@H](O)C(=O)N[C@@H]1C[C@H](N)[C@@H](O[C@H]2O[C@H](CN)[C@@H](O)[C@H](O)[C@H]2O)[C@H](O)[C@H]1O[C@H]1O[C@H](CO)[C@@H](O)[C@H](N)[C@H]1O — what was its MIC90?
Result block: 2 µg/mL

Query block: Need MIC90 of C[C@H]1c2cccc(O)c2C(=O)C2=C(O)[C@]3(O)C(=O)C(C(N)=O)=C(O)[C@@H](N(C)C)[C@@H]3[C@@H](O)[C@@H]21 , thanks.
Result block: > 8 µg/mL

====

tested on: E. coli ESBL−; experiment: In vitro MIC, 2010 surveillance isolates; format: cell-based, Escherichia coli; settings: N America; N=1172
Examples of compounds with documented MIC90 follow.
Use µg/mL as the unit, but write only the number.

- Cpd Smiles: "CN(C)c1cc(CNCC(C)(C)C)c(O)c2c1C[C@H]1C[C@H]3[C@H](N(C)C)C(O)=C(C(N)=O)C(=O)[C@@]3(O)C(O)=C1C2=O"
  Readout Kind: "MIC90"
  Numeric Readout: 2
- Cpd Smiles: "CO/N=C(\\C(=O)N[C@@H]1C(=O)N2C(C(=O)O)=C(CSc3nc(=O)c(=O)[nH]n3C)CS[C@H]12)c1csc(N)n1"
  Readout Kind: "MIC90"
  Numeric Readout: 0.12
- Cpd Smiles: "NCC[C@H](O)C(=O)N[C@@H]1C[C@H](N)[C@@H](O[C@H]2O[C@H](CN)[C@@H](O)[C@H](O)[C@H]2O)[C@H](O)[C@H]1O[C@H]1O[C@H](CO)[C@@H](O)[C@H](N)[C@H]1O"
  Readout Kind: "MIC90"
  Numeric Readout: 4

Now take the following compound into account.
Query block: What value of MIC90 has been recorded for this entry: CN(C)c1cc(NC(=O)CNC(C)(C)C)c(O)c2c1C[C@H]1C[C@H]3[C@H](N(C)C)C(O)=C(C(N)=O)C(=O)[C@@]3(O)C(O)=C1C2=O
Result block: 0.25

====

tested on: plasma proteins; experiment: In vitro plasma protein binding (ultrafiltration), human plasma; type: in vitro ADME; conditions: male, human, plasma; Concentration 1,000 ng/mL
Readout Kind: fraction unbound at 1000 ng/mL
Kindly provide the number alone.

Query block: // fetch plasma proteins fraction unbound at 1000 ng/mL for CN(C)c1cc(CNCC(C)(C)C)c(O)c2c1C[C@H]1C[C@H]3[C@H](N(C)C)C(O)=C(C(N)=O)C(=O)[C@@]3(O)C(O)=C1C2=O
Result block: 0.878

====

experiment: Phase 1b study in female adults with cystitis, plasma PK; format: in vivo, human; conditions: female, human, plasma, oral, 450 mg, plasma, Day 5, PO450; read-out: Ctrough, Geo. Mean
Readout Kind: concentration at 5 day
Could you give the number and then its unit, please?

Query block: Which concentration at 5 day value is on record for CN(C)c1cc(CNCC(C)(C)C)c(O)c2c1C[C@H]1C[C@H]3[C@H](N(C)C)C(O)=C(C(N)=O)C(=O)[C@@]3(O)C(O)=C1C2=O ?
Result block: 0.462 µg/mL

====

Reported % R (resistance) values for the following molecules.
test system: K. pneumoniae ESBL−; test: In vitro MIC, 2010 surveillance isolates; format: cell-based, Klebsiella pneumoniae; conditions: Europe; Eucast breakpoints
# include the unit after the value

Here are 3 molecules together with their reported answers.
- Molecule: "CO/N=C(\\C(=O)N[C@@H]1C(=O)N2C(C(=O)O)=C(CSc3nc(=O)c(=O)[nH]n3C)CS[C@H]12)c1csc(N)n1"
  Test Target: "K. pneumoniae ESBL−"
  % R (resistance): "0%"
- Molecule: "C[C@H]1COc2c(N3CCN(C)CC3)c(F)cc3c(=O)c(C(=O)O)cn1c23"
  Test Target: "K. pneumoniae ESBL−"
  % R (resistance): "4.2%"
- Molecule: "C[C@@H](O)[C@H]1C(=O)N2C(C(=O)O)=C(SCCN=CN)C[C@H]12"
  Test Target: "K. pneumoniae ESBL−"
  % R (resistance): "0%"

Query block: Any idea what % R (resistance) was measured for CO/N=C(\C(=O)N[C@@H]1C(=O)N2C(C(=O)[O-])=C(C[N+]3(C)CCCC3)CS[C@H]12)c1csc(N)n1 [Cefepime] ?
Result block: 0%

Query block: Dear colleague, I am looking for the recorded % R (resistance) of the following molecule: CN(C)c1cc(NC(=O)CNC(C)(C)C)c(O)c2c1C[C@H]1C[C@H]3[C@H](N(C)C)C(O)=C(C(N)=O)C(=O)[C@@]3(O)C(O)=C1C2=O
Result block: 0.3%

Query block: Quick one: % R (resistance) for NCC[C@H](O)C(=O)N[C@@H]1C[C@H](N)[C@@H](O[C@H]2O[C@H](CN)[C@@H](O)[C@H](O)[C@H]2O)[C@H](O)[C@H]1O[C@H]1O[C@H](CO)[C@@H](O)[C@H](N)[C@H]1O ?
Result block: 0.3%

====

assay: Phase 1b study in female adults with cystitis, plasma PK; type: in vivo, human; conditions: female, human, plasma, oral, 300 mg, plasma, Day 1, PO300; read-out: Tmax, Median
Readout Kind: Tmax

Query block: Requested read-out: Tmax. Entry: CN(C)c1cc(CNCC(C)(C)C)c(O)c2c1C[C@H]1C[C@H]3[C@H](N(C)C)C(O)=C(C(N)=O)C(=O)[C@@]3(O)C(O)=C1C2=O
Result block: 3 h

====

test: Phase 1b study in female adults with cystitis, plasma PK; format: in vivo, human; conditions: female, human, plasma, oral, 300 mg, plasma, Day 1, PO300; read-out: Cmax, Mean
Readout Kind: Cmax (ng/mL)
Response body: numeric value in ng/mL, unit text excluded.

Query block: May I ask what Cmax has been recorded for CN(C)c1cc(CNCC(C)(C)C)c(O)c2c1C[C@H]1C[C@H]3[C@H](N(C)C)C(O)=C(C(N)=O)C(=O)[C@@]3(O)C(O)=C1C2=O ?
Result block: 877

====

test system: E. cloacae CeftazS; experiment: In vitro MIC, 2010 surveillance isolates; format: cell-based; conditions: Europe; Eucast breakpoints
% R (resistance) overview

Query block: Give the measured % R (resistance) of CO/N=C(\C(=O)N[C@@H]1C(=O)N2C(C(=O)[O-])=C(C[N+]3(C)CCCC3)CS[C@H]12)c1csc(N)n1 [Cefepime] .
Result block: 1.1%

Query block: Look at this molecule and give its reported % R (resistance). NCC[C@H](O)C(=O)N[C@@H]1C[C@H](N)[C@@H](O[C@H]2O[C@H](CN)[C@@H](O)[C@H](O)[C@H]2O)[C@H](O)[C@H]1O[C@H]1O[C@H](CO)[C@@H](O)[C@H](N)[C@H]1O
Result block: 1.1%

Query block: What value of % R (resistance) has been recorded for this entry: C[C@H]1COc2c(N3CCN(C)CC3)c(F)cc3c(=O)c(C(=O)O)cn1c23
Result block: 2.2%
